# tested.on: T1, ING2 PHD-finger
# T1 chain: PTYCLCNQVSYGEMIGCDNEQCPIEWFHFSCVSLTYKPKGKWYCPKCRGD
# assay: BLI
pKd: −log10 of the molar value. Bridge positions count the residues as written; N and C are the ends. Ends that are not written are not given here.
measure: pKd

Task item: Could you tell me which pKd is on file for {CH2CO}-YYLTHPYPSVFRTC (thioether N-14) [OC9, de novo cyclic peptide from mRNA display] ?
Reply: < 6.00
